Recorded measurements of β-Galactosidase Activity, Cultured With ATC, one per entry
- Tested on: tet operator sequence
- Experimental Protocol: β-galactosidase activity of a tetracycline-regulated promoter in transformed E. coli with revTetR, in the presence and absence of anhydrotetracycline (atc)
- Type: cell-based, Escherichia coli
- Particulars: RevTetR isolate cultured in the presence of anhydrotetracycline (ATC)
Answer with the value's number alone.

For TetRrev4/6-10: revTetR(BD) A56S V99E (protein, Modified tetracycline repressor, revTetR(BD) A56S V99E) MSRLDKSKVINSALELLNEVGIEGLTTRKLAQKLGVEQPTLYWHVKNKRALLDALSVEILARHHDYSLPAAGESWQSFLRNNAMSFRRALLRYRDGAKEHLGTRPDEKQYDTVETQLRFMTENGFSLRDGLYAISAVSHFTLGAVLEQQEHTAALTDRPAAPDENLPPLLREALQIMDSDDGEQAFLHGLESLIRGFEVQLTALLQIV the molecule record lists β-Galactosidase Activity, Cultured With ATC as 6.149

For TetRrev29/42: revTetR(BD) E19D G96R (protein, Modified tetracycline repressor, revTetR(BD) E19D G96R) MSRLDKSKVINSALDLLNEVGIEGLTTRKLAQKLGVEQPTLYWHVKNKRALLDALAVEILARHHDYSLPAAGESWQSFLRNNAMSFRRALLRYRDRAKVHLGTRPDEKQYDTVETQLRFMTENGFSLRDGLYAISAVSHFTLGAVLEQQEHTAALTDRPAAPDENLPPLLREALQIMDSDDGEQAFLHGLESLIRGFEVQLTALLQIV the molecule record lists β-Galactosidase Activity, Cultured With ATC as 11.861
